# System: Fibroblast
# assay-name: Multiplex assay against human fibroblast
# Type: toxicity, cell-based
# test-parameters: 24 h, 10 µM, compound concentration 10 uM, replicate 1
property-label: Population Hoechst High Intensity Objects (%)
Dear colleague, please return just the value in %, with no unit written.

- molecule: "CCOC(=O)CCNc1cc(N2CCc3ccccc3CC2)nc(-c2ccccn2)n1"
  experimental-value: 15

Q. Value lookup for Population Hoechst High Intensity Objects (%); key = CC(C)[C@H](CO)Nc1nc(Nc2cccc(Cl)c2)c2ncn(C(C)C)c2n1 [PURVALANOLA]
A. 20

Q. Value lookup for Population Hoechst High Intensity Objects (%); key = CC[C@H](Nc1ncnc2[nH]cnc12)c1nc2cccc(F)c2c(=O)n1-c1ccccc1 [IDELALISIB]
A. 13

Q. Value lookup for Population Hoechst High Intensity Objects (%); key = `Cc1ccc(NC(=O)Nc2cc(C(F)(F)F)ccc2F)cc1Nc1ccc2c(c1)NC(=O)/C2=C\c1ccc[nH]1`
A. 17

Q. Value lookup for Population Hoechst High Intensity Objects (%); key = `CC(C)c1cc(Nc2nc(N3CCC[C@H](N)C3)ncc2C(N)=O)cc(C(C)C)n1`
A. 25

Q. Value lookup for Population Hoechst High Intensity Objects (%); key = CN1C(=O)[C@@H](NC(=O)c2cc3ccccc3[nH]2)N=C(c2ccccc2)c2ccccc21 [DEVAZEPIDE]
A. 12

Q. Value lookup for Population Hoechst High Intensity Objects (%); key = `CCCc1cc(C)[nH]c(=O)c1CNC(=O)c1cc(-c2ccc(N3CCN(C(C)C)CC3)nc2)cc2c1cnn2C(C)C`
A. 25

* * *

Listed below: Population Pyknosed Nuclei (%) values for each entry.
# Test system: Fibroblast
# assay-name: Multiplex assay against human fibroblast
# Type: toxicity, cell-based
# test-parameters: 12 h, 1 µM, compound concentration 1 uM, replicate 1
Dear colleague, please return just the value in %, with no unit written.

Use these answered entries as a reference point.
- molecular-string: "Cl.NC[C@@H]1O[C@H](C23CC4CC(CC(C4)C2)C3)Cc2c1ccc(O)c2O"
  experimental-system: "Fibroblast"
  Population Pyknosed Nuclei (%): 20
- molecular-string: "CC[C@H](Nc1ncnc2[nH]cnc12)c1nc2cccc(F)c2c(=O)n1-c1ccccc1"
  experimental-system: "Fibroblast"
  Population Pyknosed Nuclei (%): 17
- molecular-string: "CN(c1cc(C(F)(F)F)nc(OCCC(=O)O)n1)c1cccc2c1CCC2"
  experimental-system: "Fibroblast"
  Population Pyknosed Nuclei (%): 33
- molecular-string: "CC(C)[C@H](CO)Nc1nc(Nc2cccc(Cl)c2)c2ncn(C(C)C)c2n1"
  experimental-system: "Fibroblast"
  Population Pyknosed Nuclei (%): 30
- molecular-string: "C[C@@H](Oc1cc(-n2cnc3ccc(CN4CCN(C)CC4)cc32)sc1C(N)=O)c1ccccc1C(F)(F)F"
  experimental-system: "Fibroblast"
  Population Pyknosed Nuclei (%): 33

Q. Value lookup for Population Pyknosed Nuclei (%); key = `CC(/C=C1\SC(=S)N(CCCC(=O)Nc2ccc(C(=O)O)c(O)c2)C1=O)=C\c1ccccc1`
A. 29

Q. Value lookup for Population Pyknosed Nuclei (%); key = `Cc1c(P(=S)(c2ccccc2)c2ccccc2)n2ccccc2[n+]1C/C=C/c1ccccc1.[Br-]`
A. 30

Q. Value lookup for Population Pyknosed Nuclei (%); key = `CC(C)C[C@H](NC(=O)[C@H](Cc1ccccc1)NC(=O)CNC(=O)CNC(=O)[C@@H](N)Cc1ccc(O)cc1)C(=O)O`
A. 20

* * *

# Tested on: Fibroblast
# assay-name: Multiplex assay against human fibroblast
# Type: toxicity, cell-based
# test-parameters: 12 h, 10 µM, compound concentration 10 uM, replicate 2
property-label: Population Mitotic Cells (%)
Dear colleague, please return just the value in %, with no unit written.

Use these answered entries as a reference point.
- compound: "CN(c1cc(C(F)(F)F)nc(OCCC(=O)O)n1)c1cccc2c1CCC2"
  experimental-system: "Fibroblast"
  property-label: "Population Mitotic Cells (%)"
  experimental-value: 0
- compound: "Cc1ccc(NC(=O)Nc2cc(C(F)(F)F)ccc2F)cc1Nc1ccc2c(c1)NC(=O)/C2=C\\c1ccc[nH]1"
  experimental-system: "Fibroblast"
  property-label: "Population Mitotic Cells (%)"
  experimental-value: 80
- compound: "N#Cc1cccc(C(=O)Nc2cc(-c3ccccc3)nn2-c2ccccc2)c1"
  experimental-system: "Fibroblast"
  property-label: "Population Mitotic Cells (%)"
  experimental-value: 55
- compound: "C=CC(=O)Nc1cc(-n2c(=O)ccc3cnc4ccc(-c5ccc(NS(C)(=O)=O)cc5)cc4c32)ccc1C"
  experimental-system: "Fibroblast"
  property-label: "Population Mitotic Cells (%)"
  experimental-value: 23
- compound: "CCCCCNC(=N)N/N=C/c1c[nH]c2ccc(OC)cc12.O=C(O)/C=C\\C(=O)O [TEGASEROD MALEATE]"
  experimental-system: "Fibroblast"
  property-label: "Population Mitotic Cells (%)"
  experimental-value: 0
- compound: "CCOc1ccn(-c2ccc(F)cc2)c(=O)c1C(=O)Nc1ccc(Oc2ccnc(N)c2Cl)c(F)c1"
  experimental-system: "Fibroblast"
  property-label: "Population Mitotic Cells (%)"
  experimental-value: 20
- compound: "CC(Cc1ccc(O)c(O)c1)C(C)Cc1ccc(O)c(O)c1 (centres undefined) [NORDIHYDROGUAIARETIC ACID]"
  experimental-system: "Fibroblast"
  property-label: "Population Mitotic Cells (%)"
  experimental-value: 100
- compound: "CCCCN(CC)c1nc(C)nc2c1c(C)cn2-c1c(C)cc(C)cc1C.Cl"
  experimental-system: "Fibroblast"
  property-label: "Population Mitotic Cells (%)"
  experimental-value: 80

Q. Value lookup for Population Mitotic Cells (%); key = `CCCc1cc(C)[nH]c(=O)c1CNC(=O)c1cc(-c2ccc(N3CCN(C(C)C)CC3)nc2)cc2c1cnn2C(C)C`
A. 14

* * *

Listed below: Population Normal (%) values for each entry.
# Test system: U2OS
# assay-name: Multiplex assay against U2OS
# Format: toxicity, cell-based
# test-parameters: human, 48 h, 10 µM, compound concentration 10 uM, replicate 1
Dear colleague, please return just the value in %, with no unit written.

- molecule: "CN1CCN(Cc2ccc(-c3cnc4[nH]cc(-c5ccc6[nH]ccc6c5)c4c3)cc2)CC1"
  experimental-value: 85
- molecule: "Cc1c(P(=S)(c2ccccc2)c2ccccc2)n2ccccc2[n+]1C/C=C/c1ccccc1.[Br-]"
  experimental-value: 80
- molecule: "Cl.NC[C@@H]1O[C@H](C23CC4CC(CC(C4)C2)C3)Cc2c1ccc(O)c2O"
  experimental-value: 86
- molecule: "CC(C)c1cc(Nc2nc(N3CCC[C@H](N)C3)ncc2C(N)=O)cc(C(C)C)n1"
  experimental-value: 84

Q. Value lookup for Population Normal (%); key = CN1C(=O)[C@@H](NC(=O)c2cc3ccccc3[nH]2)N=C(c2ccccc2)c2ccccc21 [DEVAZEPIDE]
A. 94

Q. Value lookup for Population Normal (%); key = CCCCCNC(=N)N/N=C/c1c[nH]c2ccc(OC)cc12.O=C(O)/C=C\C(=O)O [TEGASEROD MALEATE]
A. 85

Q. Value lookup for Population Normal (%); key = `CCCCN(CC)c1nc(C)nc2c1c(C)cn2-c1c(C)cc(C)cc1C.Cl`
A. 93

Q. Value lookup for Population Normal (%); key = CC(Cc1ccc(O)c(O)c1)C(C)Cc1ccc(O)c(O)c1 (configuration not stated) [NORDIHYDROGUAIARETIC ACID]
A. 90

Q. Value lookup for Population Normal (%); key = `C[C@@H](Oc1cc(-n2cnc3ccc(CN4CCN(C)CC4)cc32)sc1C(N)=O)c1ccccc1C(F)(F)F`
A. 88

Q. Value lookup for Population Normal (%); key = `C=CC(=O)Nc1cc(-n2c(=O)ccc3cnc4ccc(-c5ccc(NS(C)(=O)=O)cc5)cc4c32)ccc1C`
A. 95

Q. Value lookup for Population Normal (%); key = `CC(C)[C@H](CO)Nc1nc(Nc2cccc(Cl)c2)c2ncn(C(C)C)c2n1`
A. 76

Q. Value lookup for Population Normal (%); key = `N#Cc1cccc(C(=O)Nc2cc(-c3ccccc3)nn2-c2ccccc2)c1`
A. 89

* * *

# Test system: Fibroblast
# assay-name: Multiplex assay against human fibroblast
# Assay type: toxicity, cell-based
# test-parameters: 48 h, 1 µM, compound concentration 1 uM, replicate 1
Listed below: Population Apoptotic (%) values for each entry.
Dear colleague, please return just the value in %, with no unit written.

- molecule: "C=CC(=O)Nc1cc(-n2c(=O)ccc3cnc4ccc(-c5ccc(NS(C)(=O)=O)cc5)cc4c32)ccc1C"
  property-label: "Population Apoptotic (%)"
  experimental-value: 61
- molecule: "CCCc1cc(C)[nH]c(=O)c1CNC(=O)c1cc(-c2ccc(N3CCN(C(C)C)CC3)nc2)cc2c1cnn2C(C)C"
  property-label: "Population Apoptotic (%)"
  experimental-value: 66
- molecule: "CC(C)[C@H](CO)Nc1nc(Nc2cccc(Cl)c2)c2ncn(C(C)C)c2n1"
  property-label: "Population Apoptotic (%)"
  experimental-value: 60

Q. Value lookup for Population Apoptotic (%); key = `CCCCN(CC)c1nc(C)nc2c1c(C)cn2-c1c(C)cc(C)cc1C.Cl`
A. 50

Q. Value lookup for Population Apoptotic (%); key = CC(Cc1ccc(O)c(O)c1)C(C)Cc1ccc(O)c(O)c1 (centres undefined) [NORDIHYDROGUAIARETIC ACID]
A. 60

Q. Value lookup for Population Apoptotic (%); key = `CC(C)c1cc(Nc2nc(N3CCC[C@H](N)C3)ncc2C(N)=O)cc(C(C)C)n1`
A. 70
